test system: IL-17F cytokine from human PBMC; assay: IL-17F inhibition, human PBMC; assay type: cell-based; conditions: hPBMC, read-out: potency, IL-17F levels
PROPERTY_NAME: IC50 (nM)
Please respond with the number in nM and leave the unit unwritten.

stdin: Please state recorded IC50 (tested on IL-17F cytokine from human PBMC) of CCn1c(C(C)(C)Oc2ccc(F)cc2F)nc2cc(NC(=O)Cc3ccc(S(=O)(=O)CC)cc3)ccc21 [PCCR-1]
stdout: 788

---

Test: Toxicokinetics (blood), 14-day inhalation study in Sprague Dawley rats
Format: in vivo, rat
Details: Sprague-Dawley, in vivo, inhaled or intranasal; SD rat blood, inhalation, 32.1 mg/kg/day, Day 1, Female
Procedure: Rats were exposed to PCCR-1 aerosols at 3.4, 10.8 and 32.1 mg/kg/day (delivered dose) for 60 min daily for 14 days using a snout only exposure technique via a modular stainless steel flow past inhalation chamber at indicated doses as mentioned in Table 3. No treatment-related findings noted, including myeloid:erythroid (M:E) ratios in any dose levels except minimal changes in the reticulocytes and adrenal glands. The TK assessment was done by measuring the concentrations of PCCR-1 in blood. […]
PROPERTY_NAME: half-life (h)
Please respond with the number in h and leave the unit unwritten.

stdin: Fill in: half-life of CCn1c(C(C)(C)Oc2ccc(F)cc2F)nc2cc(NC(=O)Cc3ccc(S(=O)(=O)CC)cc3)ccc21 [PCCR-1] is ___
stdout: 6.9

---

assay: Toxicokinetics (blood), 14-day inhalation study in Sprague Dawley rats; assay type: in vivo, rat; settings: male, Sprague-Dawley, rat, blood, inhaled or intranasal, 3.4 mg/kg/day, SD rat blood, inhalation, 3.4 mg/kg/day, Day 14, Male; read-out: AUC0-tlast, mean (SE)
PROPERTY_NAME: AUC(0-t) (ng·h/mL)
Please respond with the number in ng·h/mL and leave the unit unwritten.

stdin: Fill in: AUC(0-t) of CCn1c(C(C)(C)Oc2ccc(F)cc2F)nc2cc(NC(=O)Cc3ccc(S(=O)(=O)CC)cc3)ccc21 is ___
stdout: 2500

---

test: Toxicokinetics (blood), 14-day inhalation study in Sprague Dawley rats; format: in vivo, rat; conditions: male, Sprague-Dawley, rat, blood, inhaled or intranasal, 3.4 mg/kg/day, SD rat blood, inhalation, 3.4 mg/kg/day, Day 1, Male; read-out: AUC0-tlast, mean (SE)
PROPERTY_NAME: AUC(0-t)

stdin: Fill in: AUC(0-t) of CCn1c(C(C)(C)Oc2ccc(F)cc2F)nc2cc(NC(=O)Cc3ccc(S(=O)(=O)CC)cc3)ccc21 is ___
stdout: 963 ng·h/mL

---

test: Toxicokinetics (blood), 14-day inhalation study in Sprague Dawley rats; type: in vivo, rat; details: both sexes, Sprague-Dawley, in vivo, inhaled or intranasal; SD rat blood, inhalation, 32.1 mg/kg/day, Day 1, Mean
PROPERTY_NAME: half-life (h)
Please respond with the number in h and leave the unit unwritten.

stdin: Fill in: half-life of CCn1c(C(C)(C)Oc2ccc(F)cc2F)nc2cc(NC(=O)Cc3ccc(S(=O)(=O)CC)cc3)ccc21 [PCCR-1] is ___
stdout: 6.8

---

assay: Single dose intranasal PK study in mice; format: in vivo, mouse; conditions: male, C57, mouse, lung/plasma, inhaled or intranasal, 50 ug, both doses (20 and 50 µg), read-out: mean lung to plasma Cmax ratio
PROPERTY_NAME: Kp

stdin: Fill in: Kp of CCn1c(C(C)(C)Oc2ccc(F)cc2F)nc2cc(NC(=O)Cc3ccc(S(=O)(=O)CC)cc3)ccc21 [PCCR-1] is ___
stdout: > 1000
